target: human PAH with the R408W mutation (Homo sapiens, UniProt P00439, R408W); construct: expressed in transfected cells; assay: Cell Based Phenylalanine Flux Assay; details: A375 cells expressing human PAH R408W; 24 hrs compound incubation; 13C-Tyrosine by LC-MS; average where tested multiple times; read-out: AC50
OBSERVABLE: AC50

FC(F)(F)c1cccn2nc([C@H]3c4nc[nH]c4CCN3c3ccccn3)cc12	> 5000 nM
CC(C)c1nnc(N2CCc3[nH]cnc3[C@@H]2c2cc3c(Cl)cccn3n2)o1	> 5000 nM
O=C(c1cnc(-c2ccccn2)o1)N1CCc2[nH]cnc2[C@H]1c1cc2c(F)cccn2n1	< 500 nM
CCc1cccn2nc([C@H]3c4nc[nH]c4CCN3C(=O)c3nnc(-c4cnn(C)c4)o3)cc12	> 5000 nM
Fc1ccc(-c2nnc(N3CCc4[nH]cnc4[C@H]3c3cc4cccc(C(F)(F)F)n4n3)o2)cc1	< 500 nM
c1cc(C2CC2)c2cc([C@@H]3c4nc[nH]c4CCN3c3nnc(C4CC4)o3)nn2c1	500 to 1000 nM
O=C(c1nnc(C2CCC2)o1)N1CCc2[nH]cnc2[C@H]1c1cc2cccc(C(F)(F)F)n2n1	1000 to 5000 nM
FC(F)(F)c1nnc(N2CCc3[nH]cnc3[C@@H]2c2cc3c(C(F)(F)F)cccn3n2)o1	> 5000 nM

QUERY: I am curious: what AC50 value has been reported for `Clc1cccc2cc([C@H]3c4nc[nH]c4CCN3c3ncccn3)nn12` ?
RESULT: 1000 to 5000 nM

QUERY: Which AC50 value is on record for `O=C([C@@H]1CC1(F)F)N1CCc2[nH]cnc2[C@@H]1c1cc2c(F)cccn2n1` ?
RESULT: 1000 to 5000 nM

QUERY: Which AC50 is listed for `CC(C)c1cccn2nc([C@@H]3c4nc[nH]c4CCN3C(=O)c3nnc(C(C)(C)C)o3)cc12` ?
RESULT: < 500 nM

QUERY: So what does the record say about AC50 for `FC(F)Oc1cccn2nc([C@H]3c4nc[nH]c4CCN3c3ncc(C(F)(F)F)cn3)cc12` ?
RESULT: > 5000 nM

QUERY: Entry `FC(F)c1nnc(N2CCc3[nH]cnc3[C@H]2c2cc3cccc(C(F)F)n3n2)o1` has what AC50?
RESULT: 1000 to 5000 nM

QUERY: Look up AC50 for this molecule: `COc1cccn2nc([C@H]3c4nc[nH]c4CCN3C(=O)c3cnn4cc(C)ccc34)cc12`
RESULT: > 5000 nM

QUERY: Returns the measured AC50 for the input molecule. Input: `CC(C)c1cccn2nc([C@H]3c4nc[nH]c4CCN3c3nnc(-c4ccncn4)o3)cc12`
RESULT: > 5000 nM

QUERY: I would be grateful if you could share the reported AC50 for `Cc1cccn2nc([C@H]3c4nc[nH]c4CCN3c3ccccn3)cc12` .
RESULT: > 5000 nM

QUERY: # input molecule: `FC(F)(F)c1ccc(N2CCc3[nH]cnc3[C@@H]2c2cc3ccccn3n2)nc1` ; wanted: its AC50
RESULT: > 5000 nM

QUERY: Can you look up the measured AC50 of `CC(C)(F)c1nnc(C(=O)N2CCc3[nH]cnc3[C@H]2c2cc3ccc(C(F)(F)F)cn3n2)o1` for me?
RESULT: 1000 to 5000 nM

---

biological target: human PAH with the R408W mutation (Homo sapiens, UniProt P00439, R408W); construct: expressed in transfected cells; assay: Cell Based Phenylalanine Flux Assay; conditions: A375 cells expressing human R408W PAH; 24 hrs compound incubation; 13C-Tyrosine by LC-MS; average where tested multiple times; read-out: AC50
List of AC50 values.

Use the examples below as a reference point.
Cn1nc(C(F)F)nc1C(=O)N1CCc2[nH]cnc2[C@H]1c1cc2c(C(F)(F)F)cccn2n1	< 500 nM
Cn1nccc1C(=O)N1CCc2[nH]cnc2[C@@H]1c1cc2ccccn2n1	> 5000 nM
Cc1cccn2nc([C@@H]3c4nc[nH]c4CCN3c3nnc(C4CC4)o3)cc12	500 to 1000 nM

Now turn to the next molecule.
QUERY: Need AC50 of `Cc1nn(C)cc1-c1nnc(C(=O)N2CCc3[nH]cnc3[C@@H]2c2cc3c(C)cccn3n2)o1` , thanks.
RESULT: > 5000 nM

---

target: human PAH with the R408W mutation (Homo sapiens, UniProt P00439, R408W); construct: expressed in transfected cells; assay: Cell Based Phenylalanine Flux Assay; details: A375 cells expressing human PAH R408W; 24 hrs compound incubation; 13C-Tyrosine by LC-MS; average where tested multiple times; read-out: AC50
OBSERVABLE: AC50

Cc1cccc2cc([C@H]3c4nc[nH]c4CCN3c3ncc(C(F)(F)F)cn3)nn12 [Example 1803]	> 5000 nM
FC(F)(F)c1cccn2nc([C@H]3c4nc[nH]c4CCN3c3nnc(-c4cnccn4)o3)cc12 [Example 2511]	> 5000 nM
Cc1c(-c2ncc(C(=O)N3CCc4[nH]cnc4[C@H]3c3cc4c(C(F)(F)F)cccn4n3)o2)cnn1C [Example 2110]	< 500 nM
FC(F)c1cccn2nc([C@H]3c4nc[nH]c4CCN3c3cncc(Cl)n3)cc12 [Example 1828]	1000 to 5000 nM

// below: AC50 requested for another compound
QUERY: Given O=C(c1ncco1)N1CCc2[nH]cnc2[C@H]1c1cc2c(C(F)F)cccn2n1 [Example 2076] , state its recorded AC50.
RESULT: 500 to 1000 nM

---

molecular target: human PAH with the R408W mutation (Homo sapiens, UniProt P00439, R408W); construct: expressed in transfected cells; experiment: Cell Based Phenylalanine Flux Assay; settings: A375 cells expressing human PAH R408W; 24 hrs compound incubation; 13C-Tyrosine by LC-MS; average where tested multiple times; read-out: AC50
OBSERVABLE: AC50

The examples below pair each entry with its known result.
O=C(c1nc2ccccc2s1)N1CCc2[nH]cnc2[C@@H]1c1cc2c(C(F)F)cccn2n1	> 5000 nM
Fc1cccnc1-c1nnc(N2CCc3[nH]cnc3[C@H]2c2cc3ccccn3n2)o1	500 to 1000 nM
Fc1cccc(F)c1-c1nnc(N2CCc3[nH]cnc3[C@H]2c2cc3c(C(F)(F)F)cccn3n2)o1	< 500 nM
FC(F)(F)c1ccc(N2CCc3[nH]cnc3[C@H]2c2cc3c(C4CC4)cccn3n2)nc1	< 500 nM
O=C(c1ocnc1C1CC1)N1CCc2[nH]cnc2[C@H]1c1cc2c(C(F)(F)F)cccn2n1	< 500 nM

Next compound, AC50 to be filled in.
QUERY: For the compound shown here, `Cc1cccn2nc([C@@H]3c4nc[nH]c4CCN3C(=O)[C@@H]3CC3(F)F)cc12` , give the reported AC50.
RESULT: < 500 nM

---

biological target: human PAH with the R408W mutation (Homo sapiens, UniProt P00439, R408W); construct: expressed in transfected cells; assay: Cell Based Phenylalanine Flux Assay; conditions: A375 cells expressing human R408W PAH; 24 hrs compound incubation; 13C-Tyrosine by LC-MS; average where tested multiple times; read-out: AC50;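 note: after compound treatment, cells received sepiapterin plus isotope-labelled Phenylalanine for 4 hours, then labelled Tyrosine in the medium was quantified, 10-point 2-fold dilution series run in duplicate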
Here the recorded AC50 is given for each entry.

COc1cccn2nc([C@@H]3c4nc[nH]c4CCN3C(=O)c3cc(C)nn3C)cc12	< 0.5 µM
Cc1nc([C@@H](C)O)oc1C(=O)N1CCc2[nH]cnc2[C@H]1c1cc2c(Cl)cccn2n1	< 0.5 µM

Please turn your attention to the following entry.
QUERY: Which AC50 is listed for `CCOc1cccc2cc([C@@H]3c4nc[nH]c4CCN3C(=O)c3ocnc3C(F)F)nn12` ?
RESULT: < 0.5 µM

---

Target: human PAH with the R408W mutation (Homo sapiens, UniProt P00439, R408W)
Construct: expressed in transfected cells
Sequence (P00439 1-452 R408W): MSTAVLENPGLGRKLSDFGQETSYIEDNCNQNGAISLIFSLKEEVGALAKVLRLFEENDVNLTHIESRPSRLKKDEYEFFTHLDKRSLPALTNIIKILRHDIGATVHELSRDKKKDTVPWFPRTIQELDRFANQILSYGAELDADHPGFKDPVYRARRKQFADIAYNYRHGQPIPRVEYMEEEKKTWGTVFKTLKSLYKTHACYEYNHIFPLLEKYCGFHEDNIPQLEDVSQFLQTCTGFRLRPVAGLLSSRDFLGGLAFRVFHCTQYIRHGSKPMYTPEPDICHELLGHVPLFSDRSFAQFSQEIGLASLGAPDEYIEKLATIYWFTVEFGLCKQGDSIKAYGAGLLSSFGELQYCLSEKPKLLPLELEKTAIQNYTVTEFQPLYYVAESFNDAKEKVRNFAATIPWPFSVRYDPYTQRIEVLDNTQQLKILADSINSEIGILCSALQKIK
Assay: Cell Based Phenylalanine Flux Assay
Conditions: A375 cells expressing human R408W PAH; 24 hrs compound incubation; 13C-Tyrosine by LC-MS; average where tested multiple times; read-out: AC50
OBSERVABLE: AC50

For orientation, consider the following solved cases.
CCOc1cccc2cc([C@@H]3c4nc[nH]c4CCN3C(=O)c3nnc(C(C)(C)F)o3)nn12	1 to 5 µM
O=C(c1cnco1)N1CCc2[nH]cnc2[C@@H]1c1cc2c(Cl)cccn2n1	> 5 µM
COc1ccc2c(C(=O)N3CCc4[nH]cnc4[C@H]3c3cc4c(Cl)cccn4n3)cnn2c1	< 0.5 µM
Cc1nnc(C(=O)N2CCc3[nH]cnc3[C@@H]2c2cc3c(C(F)(F)F)cccn3n2)o1	> 5 µM
COc1ccc2c(C(=O)N3CCc4[nH]cnc4[C@H]3c3cc4c(F)cccn4n3)cnn2c1	0.5 to 1 µM

QUERY: So what's the measured AC50 for this one? `Cc1nn(C)cc1-c1nnc(C(=O)N2CCc3[nH]cnc3[C@@H]2c2cc3cccc(F)n3n2)o1`
RESULT: 1 to 5 µM

QUERY: Which value of AC50 has been reported for `Cn1cnc(-c2nnc(C(=O)N3CCc4[nH]cnc4[C@@H]3c3cc4c(C(F)(F)F)cccn4n3)o2)c1` in the records?
RESULT: > 5 µM

QUERY: AC50 for `CC(C)(C)c1nnc(C(=O)N2CCc3[nH]cnc3[C@H]2c2cc3c(OC(F)(F)F)cccn3n2)o1` ?
RESULT: 0.5 to 1 µM

QUERY: So what's the measured AC50 for this one? `Cc1cccc2cc([C@H]3c4nc[nH]c4CCN3C(=O)c3nnc(-c4ncccn4)o3)nn12`
RESULT: 1 to 5 µM

QUERY: Query: AC50; subject: `CC(C)(O)c1nc(C(F)F)c(C(=O)N2CCc3[nH]cnc3[C@@H]2c2cc3cccc(Cl)n3n2)o1`
RESULT: 1 to 5 µM
